Tested on: THP-1 (human myelomonocytic cancer)
Experiment: MTS cell viability assay, THP-1 cells
Type: cell-based
Details: 48 hours, individual drug, read-out: ED50 in THP-1
pEC50: −log10 of the molar value.
MEASUREMENT_LABEL: pEC50

(A) CN(Cc1cnc2nc(N)nc(N)c2n1)c1ccc(C(=O)N[C@@H](CCC(=O)O)C(=O)O)cc1 [MTG, Methotrexate]
(B) COc1c(O)cc(O)c2c(=O)cc(-c3ccccc3)oc12
Task: Param pair: A , B . Output: the one whose pEC50 is numerically greater. Identify your selection by its label.
Result: A
(A: 5.74, B: 4.08)
